// data source = patent US20210179543A1

Target: calpain-2 (Homo sapiens, UniProt P17655)
experimental endpoint: Ki (nM)
Number in nM, nothing else.

# molecule, experimental endpoint, readout value
records = [
    ("CCC(NC(=O)[C@H](CC(C)C)NC(=O)CCc1ccccc1)C(=O)C(=O)NCc1cc(F)cc(OC)c1 (stereo partly drawn)", "Ki", 103),
]

Q: Report measured Ki; entry is CC[C@H](NC(=O)[C@H](CC(C)C)NC(=O)CCc1ccccc1)C(=O)C(=O)NCc1cc(F)cc(OC)c1 [NA115A]
A: 124

* * *

Here the recorded pKi is given for each entry.
Biological target: human calpain-1 (Homo sapiens, UniProt P07384)
Sequence (P07384 whole entry, one chain of several): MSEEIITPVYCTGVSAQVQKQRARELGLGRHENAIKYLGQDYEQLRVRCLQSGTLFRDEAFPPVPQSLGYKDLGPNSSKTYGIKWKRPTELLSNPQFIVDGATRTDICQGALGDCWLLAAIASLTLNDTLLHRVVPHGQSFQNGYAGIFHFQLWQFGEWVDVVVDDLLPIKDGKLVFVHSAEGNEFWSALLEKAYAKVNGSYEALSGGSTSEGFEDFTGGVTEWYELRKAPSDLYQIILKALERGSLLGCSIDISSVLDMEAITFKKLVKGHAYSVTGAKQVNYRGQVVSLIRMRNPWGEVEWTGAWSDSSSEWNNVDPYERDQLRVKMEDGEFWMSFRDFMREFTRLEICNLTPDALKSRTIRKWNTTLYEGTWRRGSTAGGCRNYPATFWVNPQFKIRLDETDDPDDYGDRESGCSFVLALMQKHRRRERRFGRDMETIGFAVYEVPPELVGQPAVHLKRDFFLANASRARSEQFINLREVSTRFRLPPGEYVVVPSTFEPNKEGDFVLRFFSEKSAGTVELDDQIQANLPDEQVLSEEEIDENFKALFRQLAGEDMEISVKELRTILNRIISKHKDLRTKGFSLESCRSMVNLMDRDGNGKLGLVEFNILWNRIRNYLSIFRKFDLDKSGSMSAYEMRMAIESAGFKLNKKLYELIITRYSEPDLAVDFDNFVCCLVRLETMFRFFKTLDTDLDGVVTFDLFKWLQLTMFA
Just the number, please; pKi means minus log10 of the concentration in mol/L.

# compound, readout value
rows = [
    ("CC[C@H](NC(=O)[C@H](CC(C)C)NC(=O)CCc1ccccc1)C(=O)C(=O)NCc1cc(F)cc(OC)c1 [NA115A]", 6.72),
]

Below: the item to evaluate.
Q: Quote pKi with test system human calpain-1 (Homo sapiens, UniProt P07384) for CCC(NC(=O)[C@H](CC(C)C)NC(=O)CCc1ccccc1)C(=O)C(=O)NCc1cc(F)cc(OC)c1 (stereo partly drawn)
A: 6.33

* * *

Here the recorded IC50 is given for each entry.
Target: UniProt:P17655
Sequence (P17655 1-700): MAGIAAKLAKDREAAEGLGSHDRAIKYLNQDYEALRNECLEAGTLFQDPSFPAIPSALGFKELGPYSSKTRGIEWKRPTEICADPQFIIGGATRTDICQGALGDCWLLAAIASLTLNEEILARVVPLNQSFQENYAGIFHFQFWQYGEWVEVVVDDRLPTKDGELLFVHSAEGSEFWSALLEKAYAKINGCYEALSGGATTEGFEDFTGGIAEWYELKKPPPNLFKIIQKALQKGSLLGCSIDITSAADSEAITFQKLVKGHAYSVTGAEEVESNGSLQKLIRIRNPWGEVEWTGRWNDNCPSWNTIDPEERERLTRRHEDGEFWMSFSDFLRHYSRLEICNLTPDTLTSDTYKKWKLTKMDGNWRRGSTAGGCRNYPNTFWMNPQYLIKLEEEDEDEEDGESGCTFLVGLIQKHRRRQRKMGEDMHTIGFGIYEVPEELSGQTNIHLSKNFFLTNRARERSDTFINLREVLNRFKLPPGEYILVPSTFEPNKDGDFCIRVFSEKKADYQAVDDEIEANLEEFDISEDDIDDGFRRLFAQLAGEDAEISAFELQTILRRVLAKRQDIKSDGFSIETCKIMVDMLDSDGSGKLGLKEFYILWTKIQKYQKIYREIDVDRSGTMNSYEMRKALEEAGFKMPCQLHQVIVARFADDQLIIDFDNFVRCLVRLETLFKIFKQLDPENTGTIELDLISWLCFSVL
Sequence (P04632 1-268 partner): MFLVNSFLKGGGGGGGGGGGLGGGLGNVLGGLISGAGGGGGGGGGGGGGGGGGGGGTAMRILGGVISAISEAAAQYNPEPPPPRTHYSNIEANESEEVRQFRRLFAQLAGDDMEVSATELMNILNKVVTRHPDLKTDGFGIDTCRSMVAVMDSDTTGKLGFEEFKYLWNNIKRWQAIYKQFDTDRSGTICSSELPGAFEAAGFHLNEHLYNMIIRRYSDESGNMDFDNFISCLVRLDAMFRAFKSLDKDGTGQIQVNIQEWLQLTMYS
Number in nM, nothing else.

# molecule, assay system, IC50 / nM
records = [
    ("CCC(NC(=O)[C@H](CC(C)C)NC(=O)CCc1ccccc1)C(=O)C(=O)NCc1cc(F)cc(OC)c1 (stereo partly drawn)", "UniProt:P17655", 170),
]

Q: Report measured IC50; entry is CC[C@H](NC(=O)[C@H](CC(C)C)NC(=O)CCc1ccccc1)C(=O)C(=O)NCc1cc(F)cc(OC)c1 [NA115A]
A: 196
